tested on: T1, FLAG-tagged ACE-2 target (human, UniProt Q9BYF1 18-740)
T1 construct: range 1-740; obtained from Human Genome Sciences, Inc; also called FLAG-ACE-2; tagged human ACE-2; not shown: FLAG tag
T1 sequence (Q9BYF1 18-740 limits assumed): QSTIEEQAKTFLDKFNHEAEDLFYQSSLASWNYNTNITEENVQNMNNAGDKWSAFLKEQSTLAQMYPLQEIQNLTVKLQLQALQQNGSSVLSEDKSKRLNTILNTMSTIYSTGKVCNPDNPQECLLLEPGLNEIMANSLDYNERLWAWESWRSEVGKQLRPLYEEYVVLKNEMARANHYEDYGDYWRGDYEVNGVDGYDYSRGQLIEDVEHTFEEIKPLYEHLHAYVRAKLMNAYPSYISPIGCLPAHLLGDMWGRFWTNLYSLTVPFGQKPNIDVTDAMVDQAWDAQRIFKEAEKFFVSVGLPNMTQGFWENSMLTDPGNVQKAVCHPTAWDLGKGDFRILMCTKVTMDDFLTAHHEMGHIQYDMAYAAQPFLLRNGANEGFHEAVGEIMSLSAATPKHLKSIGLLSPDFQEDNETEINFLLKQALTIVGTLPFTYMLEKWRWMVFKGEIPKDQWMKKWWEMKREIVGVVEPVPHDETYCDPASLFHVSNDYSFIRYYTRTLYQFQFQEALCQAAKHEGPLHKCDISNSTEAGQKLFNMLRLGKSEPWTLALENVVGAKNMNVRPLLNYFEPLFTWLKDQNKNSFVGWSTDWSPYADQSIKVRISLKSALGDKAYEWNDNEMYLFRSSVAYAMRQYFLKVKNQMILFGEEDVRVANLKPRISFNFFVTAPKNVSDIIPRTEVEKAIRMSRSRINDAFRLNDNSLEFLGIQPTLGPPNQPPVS
assay overview: phage ELISA on FLAG-ACE-2
No end group written: not given here.
assay readout: binding result

[[record]]
binder = "GGQCGTSYLFCIDF (not fully specified (bridges); cysteine pairing not given here) [ACE-2 binding polypeptide GGQCGTSYLFCIDF]"
measurement = "binds"

[[record]]
binder = "LHDCFIYADYEYCFDF (not fully specified (bridges); cysteine pairing not given here) [ACE-2 binding polypeptide LHDCFIYADYEYCFDF]"
measurement = "binds"

[[record]]
binder = "DYLCFDWEACWLS (not fully specified (bridges); cysteine pairing not given here) [ACE-2 binding polypeptide DYLCFDWEACWLS]"
measurement = "binds"

